Each entry below carries its recorded IC50.
Biological target: BACE (Homo sapiens (Human), UniProt P56817)
Sequence (P56817 46-501, species assumed): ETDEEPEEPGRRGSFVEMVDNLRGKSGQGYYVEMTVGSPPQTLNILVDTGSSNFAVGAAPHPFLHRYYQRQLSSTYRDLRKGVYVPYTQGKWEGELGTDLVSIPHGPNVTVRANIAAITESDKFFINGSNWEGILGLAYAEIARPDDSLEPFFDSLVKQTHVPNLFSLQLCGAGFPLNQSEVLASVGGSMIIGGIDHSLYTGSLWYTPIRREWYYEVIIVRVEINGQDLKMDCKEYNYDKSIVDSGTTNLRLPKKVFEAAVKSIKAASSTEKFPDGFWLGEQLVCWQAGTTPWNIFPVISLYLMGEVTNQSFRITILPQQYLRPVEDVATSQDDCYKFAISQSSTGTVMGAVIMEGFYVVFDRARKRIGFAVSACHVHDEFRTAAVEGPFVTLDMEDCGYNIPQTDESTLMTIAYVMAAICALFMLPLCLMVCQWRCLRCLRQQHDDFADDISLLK
Assay: In vitro BACE cell-based assay (Aβ40 in conditioned medium, sandwich ELISA)
# unit: µM | format: bare number

A selection of reference data follows.
# compound, recorded_metric, value_observed
measured = [
    ("C[C@]1(c2nc(NC(=O)c3ccc(C#N)cn3)ccc2F)N=C(N)O[C@@H]2C[C@@H]21 [Example 324]", "IC50", 0.0283),
    ("NC1=N[C@](CF)(c2cc(NC(=O)c3nn(C(F)F)cc3Cl)cnc2F)[C@H]2C[C@H]2O1 [Example 207]", "IC50", 0.0176),
    ("NC1=N[C@@](c2cc(NC(=O)c3cnc(OCc4cncs4)cn3)ccc2F)(C(F)F)[C@H]2C[C@H]2O1 [Example 170]", "IC50", 0.56),
]

BACE (Homo sapiens (Human), UniProt P56817) IC50 of NC1=N[C@@](c2cc(NC(=O)c3cnc(OCC#CC4CC4)cn3)ccc2F)(C(F)F)[C@H]2C[C@H]2O1 [Example 411] is 0.112

====

Biological target: BACE (Homo sapiens (Human))
Assay: In vitro BACE cell-based assay (Aβ40 in conditioned medium, sandwich ELISA)
log10 IC50 for assorted compounds
Field: value | Transform: log10 | Quantity: IC50 | Unit: µM

Some compounds with recorded log10 IC50:
# compound, log10 IC50
measured = [
    ("NC1=N[C@](CF)(c2cc(Nc3nccc4cc(Cl)cnc34)cc(F)c2F)[C@H]2C[C@H]2O1 [Example 342]", -0.92),
    ("COc1cnc2c(Nc3ccc(F)c([C@@]4(C)N=C(N)O[C@@H]5C[C@@H]54)c3)nccc2c1 [Example 340]", -1.10),
    ("NC1=N[C@@](c2cc(NC(=O)c3cnc(Cl)cn3)ccc2F)(C(F)F)[C@H]2C[C@H]2O1 [Example 261]", 0.20),
    ("COc1cnc(C(=O)Nc2cnc(F)c([C@]3(C)N=C(N)O[C@H]4C[C@H]43)c2)cn1 [Example 336]", -1.38),
    ("Cc1nc(OCC(F)(F)F)cnc1C(=O)Nc1cc(F)c(Cl)c([C@]2(CF)N=C(N)O[C@H]3C[C@H]32)c1 (racemic) [Example 159]", -0.33),
]

Measured log10 IC50 of Cc1cc(NC(=O)c2ncc(Cl)cc2F)cc([C@@]2(C(F)F)N=C(N)O[C@@H]3C[C@@H]32)c1F [Example 302] : -1.85

GET /value?item= NC1=N[C@](CF)(c2cc(NC(=O)c3ccc(Br)cn3)ccc2Cl)[C@H]2C[C@H]2O1 [Example 274] &field=log10 IC50 returns -1.92

Field log10 IC50 (entry Cc1ccc(C(=O)Nc2ccc(F)c([C@@]3(C(F)F)N=C(N)O[C@@H]4C[C@@H]43)c2)nc1 [Example 190] ) reads -1.13

log10 IC50 reported for this compound NC1=N[C@@](CF)(c2nc(NC(=O)c3ccc(Cl)cn3)ccc2F)[C@@H]2C[C@@H]2O1 (stereo in doubt) [Example 106] : -1.34

Looking up CCOc1cnc(C(=O)Nc2ccc(F)c([C@@]3(C(F)F)N=C(N)O[C@@H]4C[C@@H]43)c2)cn1 [Example 417] , I found its log10 IC50 recorded as -1.06

Per the record, Cc1cnc(C(=O)Nc2ccc(F)c([C@@]3(C(F)F)N=C(N)O[C@@H]4C[C@@H]43)c2)cn1 [Example 266] has log10 IC50 of -0.11

====

Target: Cathepsin D (Cat D) (Homo sapiens (Human), UniProt P07339)
Sequence (P07339 65-412, species assumed): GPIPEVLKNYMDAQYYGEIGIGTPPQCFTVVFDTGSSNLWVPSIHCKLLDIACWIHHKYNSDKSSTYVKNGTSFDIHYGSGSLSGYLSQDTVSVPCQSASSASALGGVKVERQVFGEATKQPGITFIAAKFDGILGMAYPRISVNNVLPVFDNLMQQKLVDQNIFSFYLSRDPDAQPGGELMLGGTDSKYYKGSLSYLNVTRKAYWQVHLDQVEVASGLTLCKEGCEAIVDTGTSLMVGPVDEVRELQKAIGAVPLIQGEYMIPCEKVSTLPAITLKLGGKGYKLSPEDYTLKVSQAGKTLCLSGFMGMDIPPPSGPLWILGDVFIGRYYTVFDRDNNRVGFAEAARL
Assay: In vitro enzymatic Cathepsin D (Cat D) FRET assay
Format: biochemical
Conditions: read-out: CatD IC50
Below, each entry is listed with its recorded IC50.
Provide the reading as a plain figure in µM.

These solved cases illustrate the format of a correct answer.
# test_smiles, IC50 / µM
rows = [
    ("NC1=N[C@@](c2cc(NC(=O)c3ccc(Br)cn3)cc(F)c2F)(C(F)F)[C@H]2C[C@H]2O1", 81.9),
    ("C[C@]1(c2cc(NC(=O)c3ccc(Cl)cn3)ccc2F)N=C(N)O[C@@H]2C[C@@H]21", 476),
    ("NC1=N[C@@](c2cc(-c3nnc(-c4ccc(F)cc4)[nH]3)ccc2F)(C(F)F)[C@H]2C[C@H]2O1", 250),
]

Consider the additional compound presented here.
In plain terms, "CC(F)(F)Oc1ccc(C(=O)Nc2ccc(F)c([C@@]3(C(F)F)N=C(N)O[C@@H]4C[C@@H]43)c2)nc1" has a documented IC50 of 1070

====

Target: Cathepsin D (Cat D) (Homo sapiens (Human), UniProt P07339)
Assay: In vitro enzymatic Cathepsin D (Cat D) FRET assay
Type: biochemical
Details: read-out: CatD IC50
# if measured IC50 < 500 µM: Yes  # else: No

Previously resolved entries follow.
# compound, category_label
rows = [
    ("NC1=N[C@@](c2cc(NC(=O)c3ccccn3)ccc2F)(C(F)F)[C@H]2C[C@H]2O1 [Example 292]", "No"),
    ("N#Cc1cnc(C(=O)Nc2ccc(F)c([C@@]3(C(F)F)N=C(N)O[C@@H]4C[C@@H]43)c2)c(C(F)F)c1 [Example 395]", "Yes"),
    ("N#Cc1csc(C(=O)Nc2ccc(F)c([C@@]3(C(F)F)N=C(N)O[C@@H]4C[C@@H]43)c2)c1 [Example 178]", "No"),
]

A record lists COc1cnc2c(Nc3ccc(F)c([C@@]4(CF)N=C(N)O[C@@H]5C[C@@H]54)c3F)nccc2n1 [Example 355] . Is its IC50 below 500 µM? No

Does the reported IC50 of C#CCOc1cnc(C(=O)Nc2cnc(F)c([C@@]3(CF)N=C(N)O[C@@H]4C[C@@H]43)c2)cn1 [Example 206] stay below 500 µM? Yes

Dear colleague, could you confirm whether IC50 of NC1=N[C@@](c2cc(NC(=O)c3coc(CF)n3)ccc2F)(C(F)F)[C@H]2C[C@H]2O1 [Example 168] falls below 500 µM? Thanks. Yes

For this compound, is IC50 lower than 500 µM? NC1=N[C@@](c2cc(NC(=O)c3ccc(Cl)s3)ccc2F)(C(F)F)[C@H]2C[C@H]2O1 [Example 179] Yes

====

// reported pIC50 for each item listed
Target: Beta Secretase enzyme (BACE) (Homo sapiens (Human))
Sequence (P56817 46-501): as the sequence (P56817 46-501, species assumed) above
Test: In vitro enzymatic BACE FRET assay
Assay type: biochemical
Settings: read-out: BACE1 Enzyme assay IC50
// pIC50 is dimensionless: -log10 of concentration (M)

Check out these entries, answers already filled in.
# compound, value_observed
measured = [
    ("NC1=N[C@@](c2cc(NC(=O)c3cc(Cl)ccn3)ccc2F)(C(F)F)[C@H]2C[C@H]2O1 [Example 287]", 5.71),
    ("N#Cc1cnc2c(Nc3ccc(Cl)c([C@@]4(CF)N=C(N)O[C@@H]5C[C@@H]54)c3)ncc(F)c2c1 [Example 363]", 7.17),
    ("NC1=N[C@@](c2cc(NC(=O)c3cnc(OCc4nccs4)cn3)ccc2F)(C(F)F)[C@H]2C[C@H]2O1 [Example 165]", 7.72),
]

Consider the additional compound presented here.
Reported pIC50 for Cc1cc(OCC(F)(F)F)cnc1C(=O)Nc1ccc(F)c([C@@]2(C(F)F)N=C(N)O[C@@H]3C[C@@H]32)c1 [Example 189] was 6.92

====

Target: Cathepsin D (Cat D) (Homo sapiens (Human))
Experiment: In vitro enzymatic Cathepsin D (Cat D) FRET assay
Type: biochemical
Settings: read-out: CatD IC50
IC50 less than 600 µM is t; IC50 greater than or equal to 600 µM is f.

# strict comparison: is reported IC50 < 600 µM? input = NC1=N[C@@](c2cc(NC(=O)C#Cc3ccccc3)ccc2F)(C(F)F)[C@H]2C[C@H]2O1 [Example 262] t

Answer whether the compound NC1=N[C@@](c2cc(NC(=O)c3cnc(OCC4CCOCC4)cn3)ccc2F)(C(F)F)[C@H]2C[C@H]2O1 [Example 412] has IC50 strictly less than 600 µM f

Below 600 µM on IC50? Entry Cc1cc(C#N)cnc1C(=O)Nc1cc(F)c(C)c([C@@]2(C(F)F)N=C(N)O[C@@H]3C[C@@H]32)c1 [Example 310] f

# TODO verify IC50 < 600 µM strictly for this compound: COc1cnc2c(Nc3ccc(F)c([C@@]4(C(F)F)N=C(N)O[C@@H]5C[C@@H]54)c3)ncc(F)c2c1 [Example 448] t

Dear reviewer, please state whether NC1=N[C@@](c2cc(NC(=O)c3ccc(-c4ccccc4)cn3)ccc2F)(C(F)F)[C@H]2C[C@H]2O1 [Example 291] has IC50 strictly beneath 600 µM. t

Check if IC50 falls below 600 µM for CC#CCOc1cnc(C(=O)Nc2ccc(F)c([C@]3(C)N=C(N)O[C@H]4C[C@H]43)c2)c(C)c1 [Example 57] . t

Provenance of the data: patent US9085576B2
